# maps each entry to its pEC50
# study system: human GPR40 (Homo sapiens)
# Sequence (O14842 whole entry): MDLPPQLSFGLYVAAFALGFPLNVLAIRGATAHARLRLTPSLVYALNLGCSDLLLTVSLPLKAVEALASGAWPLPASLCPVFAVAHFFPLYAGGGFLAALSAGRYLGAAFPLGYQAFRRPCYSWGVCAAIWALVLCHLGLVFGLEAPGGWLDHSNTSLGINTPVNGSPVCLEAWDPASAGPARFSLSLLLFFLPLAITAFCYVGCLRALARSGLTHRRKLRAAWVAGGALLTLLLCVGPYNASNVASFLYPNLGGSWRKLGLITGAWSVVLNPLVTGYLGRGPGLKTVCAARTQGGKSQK
# protocol description: Induction of Ca2+ (calcium flux assay) using human GPR40 expression cell line
# experimental parameters: read-out: EC0.5
pEC50: −log10 of the molar value.
measurement kind: pEC50

[[record]]
compound = "CC#C[C@@H](CC(=O)O)c1ccc(OCc2ccc3nn(Cc4ccccc4)cc3c2)cc1 [Example 112]"
reported_measurement = "7.30 to 9.00"

[[record]]
compound = "CC#C[C@@H](CC(=O)O)c1ccc(OCc2ccc3nn(CCOCC)cc3c2)cc1 [Example 160]"
reported_measurement = "6.30 to 7.30"

[[record]]
compound = "CC#C[C@@H](CC(=O)O)c1ccc(OCc2ccc3ccn(Cc4cnccn4)c3c2C)cc1 [Example 60]"
reported_measurement = "7.30 to 9.00"

[[record]]
compound = "CC#C[C@@H](CC(=O)O)c1ccc(OCc2cc(C)c3c(cnn3CC(C)C)c2)cc1 [Example 130]"
reported_measurement = "7.30 to 9.00"

[[record]]
compound = "CC#C[C@@H](CC(=O)O)c1ccc(OCc2ccc3ccn(Cc4ccc(F)cc4)c3c2C)cc1 [Example 50]"
reported_measurement = "6.30 to 7.30"

[[record]]
compound = "CC#C[C@@H](CC(=O)O)c1ccc(OCc2ccc3c(cnn3C3CCCC3)c2)cc1 [Example 164]"
reported_measurement = "7.30 to 9.00"

[[record]]
compound = "CC#C[C@@H](CC(=O)O)c1ccc(OCc2cc(C)c3c(cnn3Cc3ccccc3)c2)cc1 [Example 126]"
reported_measurement = "7.30 to 9.00"

[[record]]
compound = "CC#C[C@@H](CC(=O)O)c1ccc(OCc2ccc3cnn(C4CCCC4)c3c2)cc1 [Example 172]"
reported_measurement = "7.30 to 9.00"

[[record]]
compound = "CC#C[C@@H](CC(=O)O)c1ccc(OCc2ccc3c(cnn3CC(C)C)c2)cc1 [Example 132]"
reported_measurement = "7.30 to 9.00"

[[record]]
compound = "CC#C[C@@H](CC(=O)O)c1ccc(OCc2ccc3cnn(Cc4cnccn4)c3c2)cc1 [Example 70]"
reported_measurement = "6.30 to 7.30"

[[record]]
compound = "CC#C[C@@H](CC(=O)O)c1ccc(OCc2cccc3c(C(C)C)nn(C)c23)cc1 [Example 209]"
reported_measurement = "7.30 to 9.00"

[[record]]
compound = "Cc1cc(COc2ccc3c(c2)OCC3CC(=O)O)cc2cnn(Cc3ccccc3)c12 (stereo not drawn) [Example 128]"
reported_measurement = "6.30 to 7.30"

[[record]]
compound = "CC#C[C@@H](CC(=O)O)c1ccc(OCc2ccc3c(cnn3CCS(C)(=O)=O)c2)cc1 [Example 174]"
reported_measurement = "≤ 6.30"

[[record]]
compound = "CC#C[C@@H](CC(=O)O)c1ccc(OCc2c(F)cc3ccn(Cc4ccccc4)c3c2C)cc1 [Example 49]"
reported_measurement = "6.30 to 7.30"

[[record]]
compound = "CC#C[C@@H](CC(=O)O)c1ccc(OCc2ccc3ccn(Cc4ccncn4)c3c2C)cc1 [Example 61]"
reported_measurement = "7.30 to 9.00"

[[record]]
compound = "CC#C[C@@H](CC(=O)O)c1ccc(OCc2ccc3cnn(Cc4ccncn4)c3c2)cc1 [Example 75]"
reported_measurement = "6.30 to 7.30"

[[record]]
compound = "CC#C[C@@H](CC(=O)O)c1ccc(OCc2ccc3ccn(Cc4ccc(F)c(F)c4)c3c2C)cc1 [Example 51]"
reported_measurement = "6.30 to 7.30"

[[record]]
compound = "CC#C[C@@H](CC(=O)O)c1ccc(OCc2ccc3c(CN4CCC(F)(F)C4)cn(CC(C)C)c3n2)cc1 [Example 231]"
reported_measurement = "7.30 to 9.00"


The values you see were collected from patent US9988379B2.
